# Measured on: AR (Homo sapiens, UniProt P10275)
# Construct: endogenous in cells; host or cells: VCaP cells
# Sequence (P10275 1-920): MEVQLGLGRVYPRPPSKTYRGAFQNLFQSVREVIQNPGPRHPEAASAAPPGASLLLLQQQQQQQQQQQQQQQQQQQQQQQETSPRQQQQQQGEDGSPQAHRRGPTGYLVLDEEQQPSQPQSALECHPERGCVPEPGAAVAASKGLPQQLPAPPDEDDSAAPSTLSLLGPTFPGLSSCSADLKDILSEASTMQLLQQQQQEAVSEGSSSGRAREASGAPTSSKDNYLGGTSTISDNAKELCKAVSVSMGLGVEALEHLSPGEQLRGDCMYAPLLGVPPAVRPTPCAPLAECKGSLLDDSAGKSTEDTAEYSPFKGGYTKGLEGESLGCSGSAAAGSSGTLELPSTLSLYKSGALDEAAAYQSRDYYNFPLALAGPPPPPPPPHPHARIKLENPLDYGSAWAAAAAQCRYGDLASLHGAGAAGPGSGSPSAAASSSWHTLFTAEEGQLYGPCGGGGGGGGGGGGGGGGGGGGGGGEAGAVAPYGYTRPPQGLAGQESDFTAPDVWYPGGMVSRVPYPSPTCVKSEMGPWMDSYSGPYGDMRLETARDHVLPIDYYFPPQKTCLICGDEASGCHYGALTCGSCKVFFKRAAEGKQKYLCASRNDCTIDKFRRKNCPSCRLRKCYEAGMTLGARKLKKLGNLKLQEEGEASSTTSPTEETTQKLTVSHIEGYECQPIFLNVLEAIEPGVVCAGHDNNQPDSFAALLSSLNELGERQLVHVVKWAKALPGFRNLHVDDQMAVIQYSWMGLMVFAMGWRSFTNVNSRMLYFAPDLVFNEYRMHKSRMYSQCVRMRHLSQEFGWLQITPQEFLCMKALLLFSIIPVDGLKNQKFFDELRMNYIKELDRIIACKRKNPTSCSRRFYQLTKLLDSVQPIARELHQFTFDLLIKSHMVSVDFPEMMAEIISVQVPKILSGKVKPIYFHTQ
# Method description: VCAP AR Degradation Assay
# Assay type: cell-based
# Measurement setup: class symbols A-C, read-out: DC50
Structures can show the parent of a compound that is named as a salt.
Let's look at some compounds and their measured DC50.

CC1(C)C(=O)N(c2ccc(C#N)c(C(F)(F)F)c2)C(=S)N1c1ccc(OCCN2CCN(CC(=O)Nc3cc(Cl)cc(NC4CCC(=O)NC4=O)c3)CC2)c(F)c1 (stereo not drawn) [Example 4, hydrochloride]    < 100 nM
CCc1cc(N2C(=S)N(c3cnc(C#N)c(C(F)(F)F)c3)C(=O)C2(C)C)ccc1OCCN1CCN(CC(=O)Nc2cccc(NC3CCC(=O)NC3=O)c2)[C@H](C)C1 (stereo partly drawn) [Example 81]    < 100 nM

Turning now to a further compound:
### Prompt Recorded DC50 for CCc1cc(N2C(=S)N(c3ccc(C#N)c(C(F)(F)F)c3)C(=O)C2(C)C)ccc1OCCN1C[C@@H](C)N(CC(=O)Nc2cc(C#N)cc(NC3CCC(=O)NC3=O)c2)C[C@H]1C (stereo partly drawn) [Example 181] , please?
### Response < 100 nM
